# target.entity: T1, hIL2Rg-his (Sino Biological, Catalog# 10555) (human, UniProt P31785 23-262)
# T1 construct: Bought; also called extracellular domain of hIL2Rg
# T1 sequence: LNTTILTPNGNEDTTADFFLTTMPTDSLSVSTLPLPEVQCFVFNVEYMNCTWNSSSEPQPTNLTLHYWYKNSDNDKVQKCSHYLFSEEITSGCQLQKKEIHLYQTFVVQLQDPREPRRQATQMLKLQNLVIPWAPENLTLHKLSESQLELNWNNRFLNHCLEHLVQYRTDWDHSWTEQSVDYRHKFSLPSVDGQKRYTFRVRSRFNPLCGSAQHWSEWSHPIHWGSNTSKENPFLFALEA
# experiment.description: SPR; ratio of experimental to calculated Rmax
measured.quantity: Surface Activity (%)

{"binder": "hIL-2Rg_VHH8 Mono-Fc VHH (Fc fusion, not shown: a dimerising Fc or GST) QVQLQESGGGSVQAGGSLRLSCVASGYTFSSYCMGWFRQAPGKEREGVAALGGGSTYYADSVKGRFTISQDNAKNTLYLQMNSLKPEDTAMYYCAAAWVACLEFGGSWYDLARYKHWGQGTQVTVSS", "unit.of.measurement": "%", "quantitative.readout": 110}
{"binder": "hIL-2Rg_VHH15 Mono-Fc VHH (Fc fusion, not shown: a dimerising Fc or GST) QVQLQESGGGLVQPGGSLRLSCAASGFTFSSAHMSWVRQAPGKGREWIASIYSGGGTFYADSVKGRFTISRDNAKNTLYLQLNSLKAEDTAMYYCATNRLHYYSDDDSLRGQGTQVTVSS", "unit.of.measurement": "%", "quantitative.readout": 73}
{"binder": "hIL-2Rg_VHH22 Mono-Fc VHH (Fc fusion, not shown: a dimerising Fc or GST) QVQLQESGGGLVQPGGSLRLSCTASGFSFSSYPMTWARQAPGKGLEWVSTIASDGGSTAYAASVEGRFTISRDNAKSTLYLQLNSLKTEDTAMYYCTKGYGDGTPAPGQGTQVTVSS", "unit.of.measurement": "%", "quantitative.readout": 108}
{"binder": "hIL-2Rg_VHH20 Mono-Fc VHH (Fc fusion, not shown: a dimerising Fc or GST) QVQLQESGGGSVQAGGSLRLSCTASGFTFDDSDMGWYRQAPGNECELVSTISSDGSTYYADSVKGRFTISQDNAKNTVYLQMNSLKPEDTAVYYCAAEPRGYYSNYGGRRECNYWGQGTQVTVSS", "unit.of.measurement": "%", "quantitative.readout": 48}
{"binder": "hIL-2Rg_VHH21 Mono-Fc VHH (Fc fusion, not shown: a dimerising Fc or GST) QVQLQESGGGSVQAGGSLRLSCVASGYTSCMGWFRQAPGKEREAVATIYTRGRSIYYADSVKGRFTISQDNAKNTLYLQMNSLKPEDIAMYSCAAGGYSWSAGCEFNYWGQGTQVTVSS", "unit.of.measurement": "%", "quantitative.readout": 6}
{"binder": "hIL-2Rg_VHH19 Mono-Fc VHH (Fc fusion, not shown: a dimerising Fc or GST) QVQLQESGGGSVQAGGSLRLSCTASGFTFDDREMNWYRQAPGNECELVSTISSDGSTYYADSVKGRFTISQDNAKNTVYLQMDSVKPEDTAVYYCAADFMIAIQAPGAGCWGQGTQVTVSS", "unit.of.measurement": "%", "quantitative.readout": 33}
